tgt: TBK1 (Homo sapiens (Human), UniProt Q9UHD2)
Sequence (Q9UHD2 whole entry): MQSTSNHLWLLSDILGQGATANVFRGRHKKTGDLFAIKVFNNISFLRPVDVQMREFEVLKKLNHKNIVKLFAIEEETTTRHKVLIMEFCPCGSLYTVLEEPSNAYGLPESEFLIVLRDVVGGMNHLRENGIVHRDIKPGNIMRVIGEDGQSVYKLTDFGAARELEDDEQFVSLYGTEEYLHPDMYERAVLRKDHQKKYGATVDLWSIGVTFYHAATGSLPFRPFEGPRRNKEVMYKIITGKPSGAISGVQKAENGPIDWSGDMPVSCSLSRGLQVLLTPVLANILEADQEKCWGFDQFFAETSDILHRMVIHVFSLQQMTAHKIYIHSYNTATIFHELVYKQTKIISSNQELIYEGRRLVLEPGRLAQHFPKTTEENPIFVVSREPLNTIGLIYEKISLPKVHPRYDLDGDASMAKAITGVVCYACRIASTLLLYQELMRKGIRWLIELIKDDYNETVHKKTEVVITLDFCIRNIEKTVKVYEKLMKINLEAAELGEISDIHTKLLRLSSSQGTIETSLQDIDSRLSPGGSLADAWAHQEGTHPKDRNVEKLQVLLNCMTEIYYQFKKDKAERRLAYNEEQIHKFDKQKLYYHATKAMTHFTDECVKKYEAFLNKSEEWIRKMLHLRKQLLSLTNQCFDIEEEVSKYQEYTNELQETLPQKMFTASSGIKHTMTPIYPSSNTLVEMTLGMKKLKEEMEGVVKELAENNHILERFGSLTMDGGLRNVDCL
protocol_summary: TBK1 low ATP kinase assay (in vitro assay 1)
Format: biochemical
experimental_setup: in vitro assay 1, read-out: TBK1 low ATP kinase assay IC50
pIC50: −log10 of the molar value.
quantity: pIC50

{"columns": ["compound", "result_number"],
 "data": [
  ["O=C(CC(F)(F)F)N1CCN(Cc2ccnc(Nc3nc4ccc(-c5c(F)cncc5Cl)cc4[nH]3)c2)CC1", 6.72],
  ["Cn1ccc(-c2ccc3nc(Nc4cc(CN5CCN(C(=O)C6CCC6)CC5)ccn4)[nH]c3c2)n1", 5.86],
  ["COc1cnccc1-c1ccc2nc(Nc3cc(CN4CCN(C(=O)CC5CC5)CC4)ccn3)[nH]c2c1", 7.60],
  ["COc1nnccc1-c1ccc2nc(Nc3cc(CN4CCN(C(=O)C5CC5)CC4)ccn3)[nH]c2c1", 7.49],
  ["O=C(C1CC1)N1CCN(Cc2ccnc(Nc3nc4ccc(-c5ncnc6c5COC6)cc4[nH]3)c2)CC1", 6.87]
]}

P = CC(c1ccnc(Nc2nc3ccc(-c4cc(C(F)(F)F)ncn4)cc3[nH]2)c1)N1CCN(C(=O)CC(F)(F)F)CC1 (single isomer, unassigned) [Example 29.02.01.B]
Q = Cc1cc(CN2CCN(C(=O)CC(F)(F)F)CC2)cc(Nc2nc3ccc(-c4ccncn4)cc3[nH]2)n1
R = Cc1cc(-c2ccc3nc(Nc4cc(C(C)N5CCN(C(=O)C6CCC6)CC5)ccn4)[nH]c3c2)ncn1 (single isomer, unassigned) [Example 30.03.02.A]
S = CC(C)(C)OC(=O)N1CCN(Cc2ccnc(Nc3nc4ccc(-c5ccncc5C#N)cc4[nH]3)c2)CC1
Enquiry: // ranking: key=pIC50, reverse=True Return the labels ranked in the requested order, please.
Return: R, P, Q, S
(R: 8.38, P: 8.06, Q: 7.69, S: 6.55)

I = Cc1cc(-c2ccc3nc(Nc4cc(C(C)N5CCN(C(=O)C6CC6)CC5)ccn4)[nH]c3c2)ncn1 (single isomer, unassigned) [Example 30.03.03.B]
II = COc1cncnc1-c1ccc2nc(Nc3cc(C(C)N4CCN(C(=O)CC(F)(F)F)CC4)ccn3)[nH]c2c1 (racemic) [Example 35.02.01]
Enquiry: Please indicate which item has the smaller measured pIC50: I versus II Refer to your chosen entry by its label in the reply.
Return: I
(I: 7.85, II: 8.12)

I = CC(C)(C)OC(=O)N1CCN(Cc2ccnc(Nc3nc4ccc(-c5cc(OCC6CCC6)ncn5)cc4[nH]3)c2)CC1
II = CC(c1ccnc(Nc2nc3ccc(-c4cc(C(F)F)ncn4)cc3[nH]2)c1)N1CCN(C(=O)CC(F)(F)F)CC1 (single isomer, unassigned)
Enquiry: Please indicate which item has the smaller measured pIC50: I versus II Refer to your chosen entry by its label in the reply.
Return: I
(I: 6.51, II: 8.44)

----------
tgt: TBK1 (Homo sapiens (Human))
protocol_summary: TBK1 low ATP kinase assay (in vitro assay 1)
Type: biochemical
experimental_setup: in vitro assay 1, read-out: TBK1 low ATP kinase assay IC50
quantity: IC50 (µM)

{"columns": ["molecule", "result_number"],
 "data": [
  ["O=C(C1CC1)N1CCN(Cc2ccnc(Nc3nc4ccc(-c5ccnc(C(F)(F)F)n5)cc4[nH]3)c2)CC1", 0.164]
]}

P = O=C(C1CC1)N1CCN(Cc2ccnc(Nc3nc4ccc(-c5ncnc6ccoc56)cc4[nH]3)c2)CC1
Q = COc1cnc(OCC2CC2)nc1-c1ccc2nc(Nc3cc(CN4CCN(C(=O)CC(F)(F)F)CC4)ccn3)[nH]c2c1
Enquiry: Please indicate which item has the smaller measured IC50: P versus Q Refer to your chosen entry by its label in the reply.
Return: P
